experimental_system: APOL1 G1 (Homo sapiens, UniProt O14791, I384M/S342G)
assay_info: Trypanosoma brucei brucei Lysis Assay Using APOL1 Recombinant Protein (AlamarBlue viability readout)
Type: cell-based
reported_conditions: Trypanosome Assay; read-out: Trypanosome Assay Max Activity (%)
assay_metric: Emax

                                   molecule  measured
0  Cc1cc([C@@H]2C[C@]3(C[C@H](C)N2)OCCc2cc(Cl)sc23)on1 (racemic)      103%
1  CCc1cc([C@@H]2C[C@]3(C[C@H](C)N2)OCCc2cc(Cl)sc23)on1 (stereo in doubt)      110%
2  CCC1CC2(CC(c3cn(C)nn3)N1)OCCc1cc(C(F)(F)F)sc12 (stereo not shown)      106%
3  C[C@@H]1CC2(C[C@H](C)N1)OCCc1cc(C3CCCCC3)sc12 (single isomer, unassigned)       19%

---

experimental_system: APOL1 G1 (Homo sapiens, UniProt O14791, I384M/S342G)
Sequence (O14791 28-398 S342G/I384M): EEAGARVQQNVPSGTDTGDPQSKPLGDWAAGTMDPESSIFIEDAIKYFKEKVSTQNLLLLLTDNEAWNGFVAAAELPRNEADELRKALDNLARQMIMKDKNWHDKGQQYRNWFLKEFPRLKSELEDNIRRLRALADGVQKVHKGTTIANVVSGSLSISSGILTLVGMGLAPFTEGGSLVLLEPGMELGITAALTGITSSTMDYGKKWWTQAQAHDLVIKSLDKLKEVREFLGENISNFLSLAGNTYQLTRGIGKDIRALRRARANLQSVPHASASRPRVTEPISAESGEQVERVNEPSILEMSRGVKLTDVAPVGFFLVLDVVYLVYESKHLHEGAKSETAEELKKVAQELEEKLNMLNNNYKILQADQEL
assay_info: Trypanosoma brucei brucei Lysis Assay Using APOL1 Recombinant Protein (AlamarBlue viability readout)
Type: cell-based
reported_conditions: Trypanosome Assay
assay_metric: Trypanosome Assay Max Activity (%)

>>> print(df.to_string())
                                   compound                       experimental_system  measured
0  CC1CC2(CC(C3CC3(F)F)N1)OCCc1cc(Cl)sc12 (single isomer, unassigned)  APOL1 G1 (Homo sapiens, UniProt O14791, I384M/S342G)      98.7
1  C[C@H]1CC2(CC(c3cnn(C)c3)N1)OCC(O)c1cc(Cl)sc12 (single isomer, unassigned)  APOL1 G1 (Homo sapiens, UniProt O14791, I384M/S342G)     115.5
2  C[C@H]1CC2(CC(c3cn(C)cn3)N1)OCC(O)c1cc(Cl)sc12 (stereo in doubt)  APOL1 G1 (Homo sapiens, UniProt O14791, I384M/S342G)     119.5
3  C[C@H]1C[C@@]2(C[C@@H](c3cn(C)nn3)N1)OCC(O)(C(F)F)c1cc(Cl)sc12 (single isomer, unassigned)  APOL1 G1 (Homo sapiens, UniProt O14791, I384M/S342G)      99.0
4  CC1COC2(C[C@@H](c3cn(C)nn3)N[C@@H](C)C2)c2cc(Cl)sc21 (stereo in doubt)  APOL1 G1 (Homo sapiens, UniProt O14791, I384M/S342G)     100.0
5  CCc1cc2c(s1)C(C)COC21C[C@@H](c2cn(C)nn2)N[C@@H](C)C1 (stereo in doubt)  APOL1 G1 (Homo sapiens, UniProt O14791, I384M/S342G)     101.5

---

# IC50 annotations
experimental_system: APOL1 G1 (Homo sapiens, UniProt O14791, I384M/S342G)
Sequence (O14791 28-398 S342G/I384M): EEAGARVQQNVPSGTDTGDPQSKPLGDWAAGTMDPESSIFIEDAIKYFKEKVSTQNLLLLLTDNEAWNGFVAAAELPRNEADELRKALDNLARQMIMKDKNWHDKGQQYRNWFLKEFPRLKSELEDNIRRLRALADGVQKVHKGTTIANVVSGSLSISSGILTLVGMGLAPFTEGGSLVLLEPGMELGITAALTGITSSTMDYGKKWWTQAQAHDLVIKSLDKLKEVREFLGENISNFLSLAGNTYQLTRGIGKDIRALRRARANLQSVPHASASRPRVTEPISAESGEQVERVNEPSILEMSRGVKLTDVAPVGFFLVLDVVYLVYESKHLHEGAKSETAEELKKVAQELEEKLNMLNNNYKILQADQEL
assay_info: Trypanosoma brucei brucei Lysis Assay Using APOL1 Recombinant Protein (AlamarBlue viability readout)
Type: cell-based
reported_conditions: Trypanosome Assay; IP50 = IC50 for cell proliferation; read-out: Trypanosome Assay IP50
assay_metric: IC50

                                    compound      measured
 0  CC1CC2(CC(c3cnn(C)n3)N1)OCCc1cc(Cl)sc12 (stereo not drawn)       < 50 nM
 1  Cc1cc([C@@H]2C[C@]3(C[C@H](C)N2)OCCc2cc(Cl)sc23)[nH]n1 (racemic)       < 50 nM
 2  CNc1ncc([C@@H]2C[C@]3(C[C@H](C)N2)OCCc2cc(Cl)sc23)cn1 (racemic)       < 50 nM
 3  C[C@H]1C[C@@]2(C[C@@H](c3ccc4cn[nH]c4c3)N1)OCCc1cc(Cl)sc12 (racemic)       < 50 nM
 4  C[C@H]1C[C@@]2(C[C@@H](c3cnn(CCO)c3)N1)OCCc1cc(Cl)sc12 (racemic)       < 50 nM
 5  C[C@H]1C[C@@]2(C[C@@H](c3ccn(C)n3)N1)OCCc1cc(Cl)sc12 (racemic)  50 to 500 nM
 6  C[C@H]1C[C@@]2(C[C@@H](c3cnc(C4CC4)nc3)N1)OCCc1cc(Cl)sc12 (racemic)       < 50 nM
 7  C[C@H]1C[C@@]2(C[C@@H](c3cnn(CC(C)(CO)CO)c3)N1)OCCc1cc(Cl)sc12 (racemic)  50 to 500 nM
 8  C[C@H]1C[C@@]2(C[C@@H](c3cc(C4CCOCC4)[nH]n3)N1)OCCc1cc(Cl)sc12 (stereo in doubt)  50 to 500 nM
 9  Cc1ccnc([C@@H]2C[C@]3(C[C@H](C)N2)OCCc2cc(Cl)sc23)c1 (racemic)      > 500 nM
10  C[C@H]1C[C@@]2(C[C@@H](c3cn(C)nn3)N1)OCC(O)(C(F)F)c1cc(Cl)sc12 (single isomer, unassigned) [Compound 184]  50 to 500 nM
11  C[C@H]1CC2(C[C@H](C)N1)OCCc1sc(C(F)(F)F)cc12 (stereo partly drawn)      > 500 nM
12  C[C@H]1C[C@@]2(C[C@@H](c3ccnnc3)N1)OCCc1cc(Cl)sc12 (racemic)  50 to 500 nM
13  Cc1cc(O)ncc1[C@@H]1C[C@]2(C[C@H](C)N1)OCCc1cc(Cl)sc12 (racemic)  50 to 500 nM
14  Cc1ccc([C@@H]2C[C@]3(C[C@H](C)N2)OCCc2cc(Cl)sc23)cn1 (racemic)       < 50 nM

---

experimental_system: APOL1 (Homo sapiens)
assay_info: Multi-Tox Assay (MultiTox-Fluor Multiplex Cytotoxicity Assay in tet-inducible APOL1 T-REx-HEK293 cells; Table 46 does not say which APOL1 variant G0/G1/G2)
Format: cell-based
reported_conditions: APOL1 variant not given
assay_metric: IC90

>>> print(df.to_string())
                                   molecule      measured
0  CC1CC2(CC(c3cn[nH]c3)N1)OCCc1cc(Cl)sc12 (stereo not shown) [Compound 31]       < 50 nM
1  CC1COC2(C[C@@H](c3cn(C)nn3)N[C@@H](C)C2)c2cc(Cl)sc21 (stereo in doubt) [Compound 13]       < 50 nM
2  C[C@@H](CO)CCn1cc([C@@H]2CC3(C[C@H](C)N2)OCC(F)(F)c2cc(Cl)sc23)nn1 (stereo in doubt) [Compound 338]       < 50 nM
3  CC1CC2(CC(C3CC3)N1)OCCc1cc(Cl)sc12 (mixture of isomers) [Compound 211]  50 to 500 nM

---

Reported IC50 values follow for various molecules
experimental_system: APOL1 (Homo sapiens)
assay_info: Multi-Tox Assay (MultiTox-Fluor Multiplex Cytotoxicity Assay in tet-inducible APOL1 T-REx-HEK293 cells; Table 46 does not say which APOL1 variant G0/G1/G2)
reported_conditions: IP50 = IC50 for cell proliferation, APOL1 variant not given
assay_metric: IC50

>>> print(df.to_string())
                                    molecule      measured
 0  Cc1nnc(Cn2cc([C@@H]3C[C@]4(C[C@H](C)N3)OCC(F)(F)c3cc(Cl)sc34)nn2)[nH]1  50 to 500 nM
 1  C[C@H]1C[C@@]2(C[C@@H](c3cn(C)nn3)N1)OCC(O)(C(F)F)c1cc(Cl)sc12 (single isomer, unassigned) [Compound 185]       < 50 nM
 2  C[C@H]1C[C@@]2(C[C@@H](c3ccc(C(=O)NC4CC4)cc3)N1)OCCc1cc(Cl)sc12 (racemic)       < 50 nM
 3  C[C@H]1C[C@@]2(C[C@@H](c3cn(CCC(N)=O)nn3)N1)OCC(F)(F)c1cc(Cl)sc12       < 50 nM
 4  C[C@H]1C[C@@]2(C[C@@H](c3ccnnc3)N1)OCCc1cc(Cl)sc12 (racemic)       < 50 nM
 5  C[C@H]1C[C@@]2(C[C@@H](c3cn(Cc4ccccc4S(C)(=O)=O)nn3)N1)OC[C@@H](O)c1cc(Cl)sc12  50 to 500 nM
 6  Cc1nc2c([C@@H]3C[C@]4(C[C@H](C)N3)OCCc3cc(Cl)sc34)cccc2o1 (racemic)      > 500 nM
 7  Cc1nccn1CCCn1cc([C@@H]2C[C@]3(C[C@H](C)N2)OCC(F)(F)c2cc(Cl)sc23)nn1  50 to 500 nM
 8  CC(CO)CCn1cc([C@@H]2C[C@]3(C[C@H](C)N2)OC[C@@H](O)c2cc(Cl)sc23)nn1 (some centres unmarked)       < 50 nM
 9  C[C@@H]1CC2(C[C@@H](c3cn(C)nn3)N1)OCCc1cc(Cl)sc12 (single isomer, unassigned)  50 to 500 nM
10  Cn1cc(C2CC3(CC(C4CCC4)N2)OCCc2cc(Cl)sc23)nn1 (centres unmarked)  50 to 500 nM
11  C[C@H]1C[C@@]2(C[C@@H](c3cn(Cc4ccc(C#N)cc4)nn3)N1)OC[C@@H](O)c1cc(Cl)sc12       < 50 nM
12  COC(=O)Cn1cc([C@@H]2C[C@]3(C[C@H](C)N2)OC[C@@H](O)c2cc(Cl)sc23)nn1      > 500 nM
13  C[C@H]1C[C@@]2(C[C@@H](c3cn(CC4CCOC4)nn3)N1)OCC(F)(F)c1cc(Cl)sc12 (some centres unmarked)       < 50 nM

Just for reference, patent US12421249B2 is where these values come from.
